Recorded EC50 values for a group of compounds are listed next.
assay system: UniProtKB P13569
experiment notes: Cell-based YFP assay
Parameters: expressed in transfected cells; host or cells: CHO-K1 (Chinese hamster ovary)
assay setup: CHO-K1 cells expressing human wild type-CFTR and YFP-H148Q/I152L; forskolin 20 μM = 100% activity; read-out: Cell-based YFP Assay (EC50) Concentration Range

Known results for compounds:
query: Give EC50 for this entry on UniProtKB P13569: COC(=O)c1ccc(NC(=O)c2cc3ncc(-c4ccc(OC)c(OC)c4)cn3n2)cc1
result: ≥ 2000 nM

query: Give EC50 for this entry on UniProtKB P13569: COC(=O)[C@@H]1CCCN1C(=O)c1ccc(NC(=O)c2cc3nccc(-c4ccc(OC)c(OC)c4)n3n2)cc1
result: < 200 nM

query: Give EC50 for this entry on UniProtKB P13569: COc1ccc(-c2ccnc3cc(C(=O)Nc4ccc(OC(=O)[C@H](C)NC(=O)OC(C)(C)C)cc4)nn23)cc1OC
result: < 200 nM

Now for a further compound.
query: Give EC50 for this entry on UniProtKB P13569: COc1ccc(-c2ccnc3cc(C(=O)N4CCC(=O)C4)nn23)cc1OC
result: ≥ 2000 nM

###

assay system: human wild type-CFTR (Homo sapiens, UniProt P13569)
Sequence (P13569 whole entry): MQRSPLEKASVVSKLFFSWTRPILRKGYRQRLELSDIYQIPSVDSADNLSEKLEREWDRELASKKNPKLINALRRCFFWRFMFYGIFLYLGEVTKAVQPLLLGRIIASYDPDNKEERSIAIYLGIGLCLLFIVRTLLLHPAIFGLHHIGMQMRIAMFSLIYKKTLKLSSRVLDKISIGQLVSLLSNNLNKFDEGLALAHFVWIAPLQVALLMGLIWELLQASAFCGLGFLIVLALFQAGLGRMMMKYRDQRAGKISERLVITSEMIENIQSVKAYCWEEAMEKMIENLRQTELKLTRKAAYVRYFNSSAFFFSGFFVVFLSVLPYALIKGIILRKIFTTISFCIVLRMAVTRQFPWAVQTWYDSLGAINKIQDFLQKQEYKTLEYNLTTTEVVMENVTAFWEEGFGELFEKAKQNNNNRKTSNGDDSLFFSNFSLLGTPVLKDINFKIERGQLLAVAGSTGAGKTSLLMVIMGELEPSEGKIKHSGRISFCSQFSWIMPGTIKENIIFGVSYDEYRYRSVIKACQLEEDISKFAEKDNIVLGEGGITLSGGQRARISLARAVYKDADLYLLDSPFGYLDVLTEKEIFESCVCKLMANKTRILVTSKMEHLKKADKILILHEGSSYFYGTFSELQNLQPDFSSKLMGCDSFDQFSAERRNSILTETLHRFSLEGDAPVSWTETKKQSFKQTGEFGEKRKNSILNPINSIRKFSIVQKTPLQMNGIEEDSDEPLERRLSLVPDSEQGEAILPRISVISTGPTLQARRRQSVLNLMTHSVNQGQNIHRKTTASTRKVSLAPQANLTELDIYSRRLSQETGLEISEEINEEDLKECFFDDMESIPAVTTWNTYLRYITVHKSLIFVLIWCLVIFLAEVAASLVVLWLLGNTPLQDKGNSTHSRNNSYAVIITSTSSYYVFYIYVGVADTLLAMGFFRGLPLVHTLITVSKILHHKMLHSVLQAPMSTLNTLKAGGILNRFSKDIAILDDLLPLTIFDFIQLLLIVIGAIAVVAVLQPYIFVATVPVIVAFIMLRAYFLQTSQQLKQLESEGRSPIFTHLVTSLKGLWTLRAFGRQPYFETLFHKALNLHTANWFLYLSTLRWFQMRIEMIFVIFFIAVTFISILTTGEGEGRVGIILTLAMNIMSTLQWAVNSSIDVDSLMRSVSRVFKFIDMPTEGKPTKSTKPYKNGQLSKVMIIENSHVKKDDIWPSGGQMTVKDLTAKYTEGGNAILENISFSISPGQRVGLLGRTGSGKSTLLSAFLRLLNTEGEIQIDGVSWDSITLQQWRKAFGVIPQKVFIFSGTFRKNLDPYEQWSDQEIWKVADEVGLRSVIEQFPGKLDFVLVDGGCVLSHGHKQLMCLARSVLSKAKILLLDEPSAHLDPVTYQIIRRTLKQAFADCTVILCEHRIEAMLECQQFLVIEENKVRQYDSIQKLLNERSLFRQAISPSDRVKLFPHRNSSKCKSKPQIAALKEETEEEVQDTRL
experiment notes: Cell-based YFP assay
Set-up: expressed in transfected cells; host or cells: CHO-K1 (Chinese hamster ovary)
assay setup: CHO-K1 cells expressing human wild type-CFTR and YFP-H148Q/I152L; forskolin 20 μM = 100% activity; read-out: Cell-based YFP Assay (EC50) Concentration Range
pEC50: −log10 of the molar value.
measured attribute: pEC50

query: Give the measured pEC50 for COc1ccc(-c2ccnc3cc(C(=O)Nc4ccc(CN5CCN(C)CC5)cc4)nn23)cc1OC
result: 5.70 to 6.70

query: Give the measured pEC50 for COc1ccc(-c2ccnc3cc(C(=O)Nc4ccc(C(=O)N[C@H](C(=O)N5CCOCC5)C(C)C)cc4)nn23)cc1OC
result: > 6.70

query: Give the measured pEC50 for COC(=O)c1ccc2c(c1)N(C(=O)c1cc3nccc(-c4ccc(OC)c(OC)c4)n3n1)CC2
result: > 6.70

query: Give the measured pEC50 for COc1ccc(-c2ccnc3cc(C(=O)Nc4ccc(N(C)C)cc4)nn23)cc1OC
result: > 6.70

query: Give the measured pEC50 for COc1ccc(-c2ccnc3cc(C(=O)N4CCN(C(=O)c5ccccc5)C5(CC5)C4)nn23)cc1OC
result: > 6.70

query: Give the measured pEC50 for COc1ccc(-c2ccnc3cc(C(=O)N4CCN(C(=O)c5cc(F)ccc5F)[C@@H](C)C4)nn23)cc1OC
result: > 6.70

Now for a further compound.
query: Give the measured pEC50 for COc1ccc(-c2ccnc3cc(C(=O)Nc4ccc(OC(C)C)cc4)nn23)cc1OC
result: 5.70 to 6.70

###

assay system: Human recombinant PDE4A1A (Homo sapiens)
Construct: purchased BPS Bioscience; host or cells: insect Sf9 cells
Sequence (P27815 1-647 isoform P27815-4): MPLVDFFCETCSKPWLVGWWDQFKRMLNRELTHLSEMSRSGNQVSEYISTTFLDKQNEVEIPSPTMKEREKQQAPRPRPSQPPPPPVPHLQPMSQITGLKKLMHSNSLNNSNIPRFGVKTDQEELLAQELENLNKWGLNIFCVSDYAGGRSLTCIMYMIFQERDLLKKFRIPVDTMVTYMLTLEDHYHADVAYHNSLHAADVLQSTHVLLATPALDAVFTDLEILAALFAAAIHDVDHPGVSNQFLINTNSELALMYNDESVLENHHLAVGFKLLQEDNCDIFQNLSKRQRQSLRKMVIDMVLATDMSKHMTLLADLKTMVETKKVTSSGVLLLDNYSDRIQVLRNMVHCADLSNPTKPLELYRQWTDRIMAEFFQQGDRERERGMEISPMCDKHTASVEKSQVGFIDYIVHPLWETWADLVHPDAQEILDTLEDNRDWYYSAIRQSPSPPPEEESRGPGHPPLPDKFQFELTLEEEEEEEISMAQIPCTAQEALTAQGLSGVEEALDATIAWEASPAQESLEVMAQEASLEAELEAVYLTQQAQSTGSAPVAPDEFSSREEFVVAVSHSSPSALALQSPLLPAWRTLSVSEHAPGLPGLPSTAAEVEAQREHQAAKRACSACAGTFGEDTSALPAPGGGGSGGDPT
experiment notes: Human phosphodiesterase 4 (PDE4) inhibition, PDE4A1A
Type: biochemical
assay setup: read-out: % inhibition range at 10 uM PDE4A1A; 10 uM test compound
Recorded inhibition at 10 µM values for a group of molecules are listed next.

query: Give the measured inhibition at 10 µM for COc1ccc(-c2ccnc3cc(C(=O)Nc4ccc(C(=O)N5CCOCC5)cc4)nn23)cc1OC [Compound 41]
result: > 80%

query: Give the measured inhibition at 10 µM for COC(=O)c1ccc(NC(=O)c2cc3ncc(-c4ccc(OC)c(OC)c4)cn3n2)cc1 [Compound 239]
result: < 50%

---
query: Give the measured inhibition at 10 µM for COc1ccc(-c2ccnc3cc(C(=O)Nc4ccc(O)cc4)nn23)cc1OC [Compound 15]
result: > 80%

query: Give the measured inhibition at 10 µM for COC(=O)C(=Cc1ccccc1)NC(=O)c1cc2nccc(-c3ccc(OC)c(OC)c3)n2n1 [Compound 105]
result: > 80%

###

assay system: UniProt:P13569
experiment notes: Cell-based YFP assay
Design: expressed in transfected cells; host or cells: CHO-K1 (Chinese hamster ovary)
assay setup: CHO-K1 cells expressing human wild type-CFTR and YFP-H148Q/I152L; forskolin 20 μM = 100% activity; read-out: Cell-based YFP Assay (EC50) Concentration Range
measured attribute: EC50

query: Give the measured EC50 for COc1ccc(-c2ccnc3cc(C(=O)N4CCN[C@@H](C)C4)nn23)cc1OC
result: ≥ 2 µM

query: Give the measured EC50 for COc1ccc(-c2ccnc3cc(C(=O)N4CCN(C(=O)c5cccc(Cl)c5)[C@@H](C)C4)nn23)cc1OC
result: 0.2 to 2 µM

query: Give the measured EC50 for COc1ccc(-c2ccnc3cc(C(=O)Nc4ccc(C(=O)NCCN(C(C)C)C(C)C)cc4)nn23)cc1OC
result: < 0.2 µM

query: Give the measured EC50 for COC(=O)c1ccc(NC(=O)c2cc3nccc(-c4ccc(OC)c(OC)c4)n3n2)cn1
result: 0.2 to 2 µM

###

Recorded inhibition at 10 µM values for a group of compounds are listed next.
assay system: Human recombinant PDE4B 1 (Homo sapiens, UniProt Q07343)
Construct: purchased BPS Bioscience; host or cells: insect Sf9 cells
Sequence (Q07343 whole entry): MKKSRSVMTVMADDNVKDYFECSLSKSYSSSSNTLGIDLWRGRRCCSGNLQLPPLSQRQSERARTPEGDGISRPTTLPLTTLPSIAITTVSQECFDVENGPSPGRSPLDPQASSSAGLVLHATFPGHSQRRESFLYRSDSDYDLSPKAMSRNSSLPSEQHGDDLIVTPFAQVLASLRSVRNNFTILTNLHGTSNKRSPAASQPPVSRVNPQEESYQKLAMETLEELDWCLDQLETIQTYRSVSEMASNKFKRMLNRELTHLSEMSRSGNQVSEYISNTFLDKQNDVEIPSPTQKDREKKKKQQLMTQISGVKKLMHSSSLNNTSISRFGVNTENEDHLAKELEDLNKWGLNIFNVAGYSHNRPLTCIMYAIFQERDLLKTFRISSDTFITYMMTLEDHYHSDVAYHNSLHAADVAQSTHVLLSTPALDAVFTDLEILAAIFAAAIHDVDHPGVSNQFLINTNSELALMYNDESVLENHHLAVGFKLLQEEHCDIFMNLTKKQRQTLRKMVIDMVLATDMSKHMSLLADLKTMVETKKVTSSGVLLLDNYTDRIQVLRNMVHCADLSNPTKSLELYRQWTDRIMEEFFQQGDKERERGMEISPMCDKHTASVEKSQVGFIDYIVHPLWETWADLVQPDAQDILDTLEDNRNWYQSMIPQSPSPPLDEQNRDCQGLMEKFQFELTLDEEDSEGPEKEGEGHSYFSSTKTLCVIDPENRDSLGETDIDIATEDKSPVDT
experiment notes: Human phosphodiesterase 4 (PDE4) inhibition, PDE4B 1
Format: biochemical
assay setup: read-out: % inhibition range at 10 uM PDE4B1; 10 uM test compound

Known results for compounds:
query: Give the measured inhibition at 10 µM for COc1ccc(-c2ccnc3cc(C(=O)N4CCN(C(=O)c5cccs5)[C@@H](C)C4)nn23)cc1OC
result: > 80%

query: Give the measured inhibition at 10 µM for CCOc1ccc(C(=O)Nc2cc3nccc(-c4ccc(OC)c(OC)c4)n3n2)cc1
result: 50 to 80%

query: Give the measured inhibition at 10 µM for COc1ccc(-c2ccnc3cc(C(=O)Nc4ccc(C(=O)N5CCN(C)CC5)cc4)nn23)cc1OC
result: > 80%

Now for a further compound.
query: Give the measured inhibition at 10 µM for COC(=O)c1ccc(CNC(=O)c2cc3nccc(-c4ccc(OC)c(OC)c4)n3n2)cc1
result: 50 to 80%

###

Recorded EC50 values for a group of molecules are listed next.
assay system: human wild type-CFTR (Homo sapiens)
experiment notes: Short-circuit current measurement
Format: cell-based
Parameters: expressed in transfected cells
assay setup: FRT cells expressing human wild type-CFTR; Forskolin 20 μM signal used as 100% activity; read-out: Short-circuit current measurement (EC50) Concentration range

query: Give the measured EC50 for COC(=O)c1ccc2c(c1)CCCN2C(=O)c1cc2nccc(-c3ccc(OC)c(OC)c3)n2n1
result: < 200 nM

---
query: Give the measured EC50 for COc1ccc(-c2ccnc3cc(C(=O)N[C@H]4CC[C@H](O)CC4)nn23)cc1OC
result: ≥ 2000 nM

query: Give the measured EC50 for COc1ccc(-c2ccnc3cc(C(=O)N[C@H]4CC[C@H](C(=O)OCCCN5CCOCC5)CC4)nn23)cc1OC
result: 200 to 2000 nM

###

assay system: human wild type-CFTR (Homo sapiens, UniProt P13569)
experiment notes: Short-circuit current measurement
Type: cell-based
Set-up: expressed in transfected cells
assay setup: FRT cells expressing human wild type-CFTR; Forskolin 20 μM signal used as 100% activity; read-out: Short-circuit current measurement (EC50) Concentration range
Text: Forskolin (Tocris cat. #1099), CFTRinh-172 (Tocris cat. #3430), amphotericin B (Tocris cat. #6930), dimethyl sulfoxide (Sigma cat. #D4540), EVC4000 Multi-Channel V/I Clamp (World Precision Instruments, Sarasota, FL), PowerLab 4/35 (AD Instruments, Castle Hill, Australia), Labchart Pro 7, GraphPad Prism 5 (GraphPad Software, Inc.). […] Data were collected and analyzed with ADInstruments acquisition software Labchart Pro 7 software. […]
pEC50: −log10 of the molar value.
measured attribute: pEC50

query: Give the measured pEC50 for COc1ccc(-c2ccnc3cc(C(=O)Nc4ccc(OCCN5CCOCC5)cc4)nn23)cc1OC
result: > 6.70

query: Give the measured pEC50 for COc1ccc(-c2ccnc3cc(C(=O)N4CCN(Cc5c(F)cccc5F)CC4)nn23)cc1OC
result: ≤ 5.70

query: Give the measured pEC50 for COc1ccc(-c2ccnc3cc(C(=O)Nc4ccc(C(=O)OCCCN5CCOCC5)cn4)nn23)cc1OC
result: > 6.70

---
query: Give the measured pEC50 for COc1ccc(-c2ccnc3cc(C(=O)Nc4ccc(N5CCC6(CC5)OCCO6)cc4)nn23)cc1OC
result: > 6.70

###

assay system: human wild type-CFTR (Homo sapiens)
experiment notes: Short-circuit current measurement
Format: cell-based
Set-up: expressed in transfected cells
assay setup: FRT cells expressing human wild type-CFTR; Forskolin 20 μM signal used as 100% activity; read-out: Short-circuit current measurement (EC50) Concentration range
measured attribute: EC50

Known results for compounds:
query: Give the measured EC50 for COC(=O)c1ccc(CNC(=O)c2cc3nccc(-c4ccc(OC)c(OC)c4)n3n2)cc1 [Compound 12]
result: ≥ 2000 nM

query: Give the measured EC50 for COc1ccc(-c2ccnc3cc(C(=O)NC45CCC(C(=O)N6CCOCC6)(CC4)CC5)nn23)cc1OC [Compound 186]
result: 200 to 2000 nM

query: Give the measured EC50 for COc1ccc(-c2ccnc3cc(C(=O)Nc4ccc(C(=O)N5CCN(C(C)C)CC5)cc4)nn23)cc1OC [Compound 159]
result: 200 to 2000 nM

---
query: Give the measured EC50 for COc1ccc(-c2ccnc3cc(C(=O)Nc4ccc(C(=O)O)cc4Cl)nn23)cc1OC [Compound 106]
result: ≥ 2000 nM

Numbers sourced from patent US20240199623A1.
